Below, each entry is listed alongside its reported pIC50.
- studyTarget: EGFR[T790M/C797S/d746-750] (Homo sapiens, UniProt P00533, C797S/DEL746-750/T790M)
- Construct: purchased Carna Bio
- Sequence (P00533 with tags, fused parts or gaps DEL746-750/T790M/C797S limits assumed): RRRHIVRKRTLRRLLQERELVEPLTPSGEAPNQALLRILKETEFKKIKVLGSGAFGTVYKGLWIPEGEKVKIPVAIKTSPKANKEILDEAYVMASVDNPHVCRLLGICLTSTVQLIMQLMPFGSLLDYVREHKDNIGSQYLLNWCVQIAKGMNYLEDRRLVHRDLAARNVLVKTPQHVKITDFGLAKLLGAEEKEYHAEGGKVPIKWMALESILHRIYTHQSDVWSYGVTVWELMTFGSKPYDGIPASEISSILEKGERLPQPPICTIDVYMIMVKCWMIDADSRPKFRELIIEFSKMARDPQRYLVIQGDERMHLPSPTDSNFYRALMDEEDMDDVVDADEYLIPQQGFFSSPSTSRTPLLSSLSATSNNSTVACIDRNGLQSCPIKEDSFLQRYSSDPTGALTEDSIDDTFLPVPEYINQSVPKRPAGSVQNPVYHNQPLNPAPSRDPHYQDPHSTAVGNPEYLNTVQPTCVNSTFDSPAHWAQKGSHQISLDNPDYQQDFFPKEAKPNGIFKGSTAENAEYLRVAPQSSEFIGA
- test: Inhibition of EGFR[T790M/C797S/d746-750] biochemical enzymatic activity (HTRF)
- settings: EGFR[T790M/C797S/d746-750], 1 mM ATP, 1 h at room temperature, read-out: IC50 @T790M - C797S - Del19
FYI, pIC50 means -log10 of a concentration in mol per litre.

molecule	recordedNumber
Cc1cc2cc(n1)-c1cnn(C)c1OCCN1CC3CCC(C3)(C1)n1c(nc3ccc(N4CC(N5CCOCC5)C4)cc31)NC2=O (single isomer, unassigned) [Example B48B]	8.47

Lookup: Form field: reported pIC50 of Cc1cc2cc(n1)-c1cnn(C)c1OCCN1CC3CCC(C3)(C1)n1c(nc3ccc(N4CCC(N5CCOCC5)C4)cc31)NC2=O (single isomer, unassigned) [Example B44A1]
Found: 5.34

Lookup: How about CCN1CCN(c2ccc3nc4n(c3c2)C23CCC(CN(CCOc5c(cnn5C)-c5cc(cc(C)n5)C(=O)N4)C2)C3)CC1 (single isomer, unassigned) [Example B56B] ?
Found: 8.64

Lookup: Then Cc1cc2cc(n1)-c1cnn(C)c1OCCN1CC3CCC(C3)(C1)n1c(nc3ccc(N4CCC5(CC4)CCN5C)cc31)NC2=O (single isomer, unassigned) [Example B54A] ?
Found: 6.63

Lookup: Same question for Cc1cc2cc(n1)-c1cnn(C)c1OCCN1CC3CCC(C3)(C1)n1c(nc3ccccc31)NC2=O (stereo not drawn) [Example B8B] please.
Found: 9.01

Lookup: Same read-out for Cc1cc2cc(n1)-c1cnn(C)c1OCCN1CC3CCC(C3)(C1)n1c(nc3ccc(N4CCC5(CN(C)C5)C4)cc31)NC2=O (single isomer, unassigned) [Example B50A] ?
Found: 6.13

====

- studyTarget: EGFR wild type (Homo sapiens, UniProt P00533)
- Construct: purchased Carna Bio
- Sequence (P00533 25-1210): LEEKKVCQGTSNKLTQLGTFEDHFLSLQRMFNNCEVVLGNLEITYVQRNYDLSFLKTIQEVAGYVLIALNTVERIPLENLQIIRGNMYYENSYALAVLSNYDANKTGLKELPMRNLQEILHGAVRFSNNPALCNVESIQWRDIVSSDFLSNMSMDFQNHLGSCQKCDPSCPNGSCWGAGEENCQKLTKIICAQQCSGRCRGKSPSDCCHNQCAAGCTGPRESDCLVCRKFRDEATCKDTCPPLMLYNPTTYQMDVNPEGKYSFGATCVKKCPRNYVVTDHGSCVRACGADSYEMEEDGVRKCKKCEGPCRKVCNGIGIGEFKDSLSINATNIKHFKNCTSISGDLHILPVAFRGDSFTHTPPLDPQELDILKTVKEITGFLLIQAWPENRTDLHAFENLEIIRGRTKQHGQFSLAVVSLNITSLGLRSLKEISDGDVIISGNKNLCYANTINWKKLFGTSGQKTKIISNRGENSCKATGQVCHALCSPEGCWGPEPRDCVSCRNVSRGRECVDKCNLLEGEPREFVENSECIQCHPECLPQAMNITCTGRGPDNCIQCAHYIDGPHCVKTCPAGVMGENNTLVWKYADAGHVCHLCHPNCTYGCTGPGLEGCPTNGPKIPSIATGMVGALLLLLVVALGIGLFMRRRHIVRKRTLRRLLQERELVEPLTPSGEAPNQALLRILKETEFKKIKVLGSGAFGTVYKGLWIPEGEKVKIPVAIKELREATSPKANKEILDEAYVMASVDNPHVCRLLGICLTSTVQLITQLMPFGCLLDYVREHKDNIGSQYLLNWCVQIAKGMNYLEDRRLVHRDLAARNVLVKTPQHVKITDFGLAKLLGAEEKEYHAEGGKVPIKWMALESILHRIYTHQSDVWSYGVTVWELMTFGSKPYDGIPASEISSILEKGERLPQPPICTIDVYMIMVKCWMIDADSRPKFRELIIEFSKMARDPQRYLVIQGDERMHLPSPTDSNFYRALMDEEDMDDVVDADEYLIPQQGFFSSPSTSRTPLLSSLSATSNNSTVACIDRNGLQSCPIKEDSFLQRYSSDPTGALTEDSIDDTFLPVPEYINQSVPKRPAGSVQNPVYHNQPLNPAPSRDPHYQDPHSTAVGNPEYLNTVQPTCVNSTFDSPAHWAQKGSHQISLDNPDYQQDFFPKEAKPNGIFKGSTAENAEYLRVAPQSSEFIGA
- test: Inhibition of EGFR wild type biochemical enzymatic activity (HTRF)
- settings: EGFR WT, 1 mM ATP, 1 h, room temperature, read-out: IC50 (nM) @WT
Items are presented alongside their recorded IC50.
# unit: nM | format: bare number

compound	unitAbbrev	IC50
CN1CCN(c2ccc3nc4n(c3c2)C23CCC(CC2)CN(CCOc2c(cnn2C)-c2cc(cn(C)c2=O)C(=O)N4)C3)CC1 [Example A75]	nM	672
CN(C)CC1(F)CN(c2ccc3nc4n(c3c2)C23CCC(CN(CCOc5c(cnn5C)-c5cc(cn(C)c5=O)C(=O)N4)C2)C3)C1 (single isomer, unassigned) [Example A72B]	nM	5.2
CN1CCN(c2ccc3nc4n(c3c2)C23CCC(CN(CCOc5c(cnn5C)-c5cc(cn(C)c5=O)C(=O)N4)C2)C3)CC1 (single isomer, unassigned) [Example A63B]	nM	8

# evaluate next
Lookup: Give the measured IC50 of CN1CCC2(CCN(c3ccc4nc5n(c4c3)C34CCC(CN(CCOc6c(cnn6C)-c6cc(cn(C)c6=O)C(=O)N5)C3)C4)CC2)C1 (single isomer, unassigned) [Example A82B] .
Found: 0.92

====

- studyTarget: EGFR L858R/T790M (Homo sapiens, UniProt P00533, L858R/T790M)
- Construct: purchased Carna Bio
- Sequence (P00533 25-1210 T790M/L858R): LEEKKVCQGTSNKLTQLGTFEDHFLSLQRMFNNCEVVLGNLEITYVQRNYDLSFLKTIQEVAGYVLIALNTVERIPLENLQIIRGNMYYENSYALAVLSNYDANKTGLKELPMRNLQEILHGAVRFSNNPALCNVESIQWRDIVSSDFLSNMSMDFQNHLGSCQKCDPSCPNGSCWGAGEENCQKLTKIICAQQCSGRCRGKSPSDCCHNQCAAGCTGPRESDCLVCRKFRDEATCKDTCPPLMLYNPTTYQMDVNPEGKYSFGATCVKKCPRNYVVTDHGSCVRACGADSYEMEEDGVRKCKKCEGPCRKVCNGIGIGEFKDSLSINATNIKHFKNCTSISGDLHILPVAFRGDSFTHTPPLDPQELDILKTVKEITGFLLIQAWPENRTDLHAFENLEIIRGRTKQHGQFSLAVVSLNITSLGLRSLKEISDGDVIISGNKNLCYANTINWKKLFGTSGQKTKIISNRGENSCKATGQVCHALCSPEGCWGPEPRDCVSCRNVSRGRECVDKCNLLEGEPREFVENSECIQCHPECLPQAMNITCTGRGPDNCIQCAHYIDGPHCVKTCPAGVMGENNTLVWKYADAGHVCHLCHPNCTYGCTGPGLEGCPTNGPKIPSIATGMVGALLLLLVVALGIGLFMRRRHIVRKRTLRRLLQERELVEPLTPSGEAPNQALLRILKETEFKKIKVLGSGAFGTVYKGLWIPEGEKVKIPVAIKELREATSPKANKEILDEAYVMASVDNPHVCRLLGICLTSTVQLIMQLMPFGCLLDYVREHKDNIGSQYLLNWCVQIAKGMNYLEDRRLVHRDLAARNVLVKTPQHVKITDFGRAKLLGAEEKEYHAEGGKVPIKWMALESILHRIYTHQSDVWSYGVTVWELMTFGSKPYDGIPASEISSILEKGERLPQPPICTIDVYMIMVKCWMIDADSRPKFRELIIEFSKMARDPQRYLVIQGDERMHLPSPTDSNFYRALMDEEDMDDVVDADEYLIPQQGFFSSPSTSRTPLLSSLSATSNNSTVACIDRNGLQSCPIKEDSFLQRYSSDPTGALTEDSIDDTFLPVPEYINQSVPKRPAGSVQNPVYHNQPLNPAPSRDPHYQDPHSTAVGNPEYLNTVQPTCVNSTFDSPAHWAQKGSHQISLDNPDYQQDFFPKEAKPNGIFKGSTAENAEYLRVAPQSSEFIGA
- test: Inhibition of EGFR L858R/T790M biochemical enzymatic activity (HTRF)
- settings: IC50 @L858R-T790M, EGFR L858R/T790M, 1 mM ATP, 1 h at room temperature
Listing: pIC50 of selected compounds
# pIC50 is unitless: minus log10 of the molar concentration; print number only

Example results:
compound	recordedNumber
Cc1cc2cc(n1)-c1cnn(C)c1OCCCCCn1c(nc3ccc4c(c31)CCN(CCN(C)C)C4)NC2=O	7.92
Cc1cc2cc(n1)-c1cnn(C)c1OCCN1CC3CCC(C3)(C1)n1c(nc3ccc(N4CCC(N(C)C)CC4)cc31)NC2=O (single isomer, unassigned) [Example B40B]	8.48

Please find the next compound below.
Lookup: pIC50 lookup needed for Cc1cc2cc(n1)-c1cnn(C)c1OCCN1CC3CCC(CC3)(C1)n1c(nc3ccc(N4CCC(N(C)C)CC4)cc31)NC2=O , thanks.
Found: 8.08

====

- Test system: Ba/F3 cells expressing EGFR mutations
- test: Cell proliferation assay, Ba/F3 cells expressing EGFR mutations (CellTiter-Glo, 72 hours)
- Format: cell-based
- settings: Mus musculus, BaF3, 72 h, EGFR DEL19-T790M, CellTiter-Glo, read-out: DEL19-T790M GI50
quantityMeasured: GI50 (nM)
// units = nM; emit number, no label

molecule	studyTarget	recordedNumber
C[C@@H]1CCCOc2c(cnn2C)-c2cc(cn(C)c2=O)C(=O)Nc2nc3ccc(N4CCC(N5CCOCC5)C4)cc3n2C1 (some centres unmarked) [Example A28]	Ba/F3 cells expressing EGFR mutations	6.7
C[C@@H]1CCCOc2c(cnn2C)-c2cc(cn(C)c2=O)C(=O)Nc2nc3ccc(N4CC5(CN(C)CCO5)C4)cc3n2C1 [Example A47]	Ba/F3 cells expressing EGFR mutations	12
C[C@@H]1CCCOc2c(cnn2C)-c2cc(cn(C)c2=O)C(=O)Nc2nc3ccc4c(c3n2C1)CCN(C)C4 [Example A103]	Ba/F3 cells expressing EGFR mutations	18
C[C@@H]1CCCOc2c(cnn2C)-c2cc(cn(C)c2=O)C(=O)Nc2nc3ccc(N4CC5CCN(C)C5C4)cc3n2C1 (some centres unmarked) [Example A32]	Ba/F3 cells expressing EGFR mutations	3.8

Next, consider the following molecule.
Lookup: Need GI50, item C[C@@H]1CCCOc2c(cnn2C)-c2cc(cn(C)c2=O)C(=O)Nc2nc3ccc(N4CCNCC4)cc3n2C1 [Example A55]
Found: 36

====

- Test system: Ba/F3 cells expressing EGFR mutations
- test: Cell proliferation assay, Ba/F3 cells expressing EGFR mutations (CellTiter-Glo, 72 hours)
- Assay type: cell-based
- settings: Mus musculus, BaF3, 72 h, EGFR DEL19-T790M, CellTiter-Glo, read-out: DEL19-T790M GI50
Catalogue of GI50 values
# unit: nM | format: bare number

compound	GI50, nM
C[C@@H]1CCCOc2c(cnn2C)-c2cc(cn(C)c2=O)C(=O)Nc2nc3ccc(N4CC(F)(CN(C)C)C4)cc3n2C1 [Example A58]	20

Lookup: Fill in the blank: the reported GI50 of Cn1ncc2c1OCCN1CC3CCC(C3)(C1)n1c(nc3ccccc31)NC(=O)c1cc-2c(=O)n(C)c1 (stereo not shown) [Example A61B] is ____.
Found: 9.9

Lookup: Proceed to C[C@@H]1CCCOc2c(cnn2CC(F)(F)F)-c2cc(cn(C)c2=O)C(=O)Nc2nc3ccc(N4CCN(C)CC4)cc3n2C1 [Example A20]
Found: 226

Lookup: # iterate: CC1CCCCOc2c(cnn2C)-c2cc(cn(C)c2=O)C(=O)Nc2nc3ccc(N4CCN(C)CC4)cc3n21 (stereo not shown) [Example A19]
Found: 85

====

- System: PC-9
- test: Cell proliferation assay, PC-9 cells (CellTiter-Glo, 72 hours)
- Type: cell-based
- settings: Homo sapiens, PC-9, 72 h, PC9 cells, CellTiter-Glo, read-out: PC9 GI50
- Experimental: Biological Example 2: Cell Proliferation Assays Ba/F3 cells expressing EGFR mutations were seeded in 384-well plates at 5000 cells/well in RPMI1640 medium containing 1000 FBS. […] The assay plates were further incubated for 72 hours and the number of viable cells (G3) was measured. The percentage of proliferation was calculated as: […]=100×(G3 value of sample well−G0 value)/(G3 value of DMSO control−G0 value). […]
quantityMeasured: GI50 (nM)
Numbers only; they are read as nM.

These solved cases illustrate the format of a correct answer.
compound	GI50 (nM)
C[C@@H]1CCCOc2c(cnn2C)-c2cc(cn(C)c2=O)C(=O)Nc2nc3ccc(N4CCOCC4)cc3n2C1	18
Cn1ncc2c1OCCN1CC3CCC(C3)(C1)n1c(nc3ccccc31)NC(=O)c1cc-2c(=O)n(C)c1 (single isomer, unassigned) [Example A61A]	1910
CC1CCCCOc2c(cnn2C)-c2cc(cn(C)c2=O)C(=O)Nc2nc3ccc(N4CCN(C)CC4)cc3n21 (stereo not drawn)	856

Lookup: Please give the measured GI50 for this compound: Cn1ncc2c1OCCN1CCCCC(C1)n1c(nc3ccccc31)NC(=O)c1cc-2c(=O)n(C)c1 (stereo not drawn)
Found: 180

Lookup: Can you handle C[C@@H]1CCCOc2c(cnn2C)-c2cc(cn(C)c2=O)C(=O)Nc2nc3ccc(N4CC5(CCN(C)CC5)C4)cc3n2C1 next?
Found: 2.9

Lookup: Try the compound Cn1ncc2c1OCCN1CC3CCC(C3)(C1)n1c(nc3ccccc31)NC(=O)c1cc-2c(=O)n(C)c1 (stereo not drawn) [Example A61B]
Found: 29

Lookup: Another compound to check: C[C@@H]1CCCOc2c(cnn2C)-c2cc(cn(C3CC3)c2=O)C(=O)Nc2nc3ccc(N4CCN(C)CC4)cc3n2C1
Found: 2070

Lookup: Also CN(C)CCN(C)c1ccc2nc3n(c2c1)CCN(CC(F)F)CCOc1c(cnn1C)-c1cc(cn(C)c1=O)C(=O)N3 , if possible.
Found: 183
